Assign ASMS ratio (%) n = 2 to each entry below.
system_name: Bcl-2 protein (Recombinant Human Bcl-2 Protein) (Homo sapiens)
Construct: purchased Novus NBP2-34889
Sequence (P10415 whole entry): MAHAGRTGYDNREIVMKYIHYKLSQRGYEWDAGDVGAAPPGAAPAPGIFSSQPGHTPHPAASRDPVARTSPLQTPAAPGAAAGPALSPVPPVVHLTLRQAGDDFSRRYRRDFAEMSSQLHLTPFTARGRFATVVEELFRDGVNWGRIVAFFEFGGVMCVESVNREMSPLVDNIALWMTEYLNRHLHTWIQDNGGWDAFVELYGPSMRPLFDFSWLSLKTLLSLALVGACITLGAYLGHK
experimental_protocol: Binding evaluation of mixture library compounds to Bcl-2 using AS-MS (affinity selection mass spectrometry)
test_context: AS-MS, mixture library, Bcl-2; replicate n = 2; ASMS Ratio(%)=(A−C)/B×100
The response must be a number in % with no trailing unit.

Challenge: Could you tell me which ASMS ratio (%) n = 2 is on file for CCOc1cncc(-c2ccccc2CN2CCN(c3ccc(C(=O)NS(=O)(=O)CC45CC6CC(CC(C6)C4)C5)cc3)CC2)c1 ?
Response given: −22.1

Challenge: Could you tell me which ASMS ratio (%) n = 2 is on file for CCOc1cccc(-c2ccc(CN3CCN(c4ccc(C(=O)N(CC)CC)nn4)CC3)c(CC)c2)c1 ?
Response given: 0.0

Challenge: Could you tell me which ASMS ratio (%) n = 2 is on file for CCOc1cncc(-c2ccc(CN3CCN(c4ccc(C(=O)NS(=O)(=O)CC56CC7CC(CC(C7)C5)C6)cc4)CC3)c(CC)c2)c1 ?
Response given: 1.6

Challenge: Could you tell me which ASMS ratio (%) n = 2 is on file for CCOc1cncc(-c2cc(CN3CCN(c4ccc(C(=O)NS(=O)(=O)CC56CC7CC(CC(C7)C5)C6)nn4)CC3)cc(OC(F)(F)F)c2)c1 ?
Response given: 4.7

Challenge: Could you tell me which ASMS ratio (%) n = 2 is on file for CCOc1cccc(-c2ccc(CN3CCN(c4ccc(C(=O)N(CC)CC)nn4)CC3)c3ccccc23)c1 ?
Response given: 1.5

Challenge: Could you tell me which ASMS ratio (%) n = 2 is on file for CCOc1cccc(-c2cc(OC)c(CN3CCN(c4ccc(C(=O)NS(=O)(=O)CC56CC7CC(CC(C7)C5)C6)nn4)CC3)c(OC)c2)c1 ?
Response given: 0.0

Challenge: Could you tell me which ASMS ratio (%) n = 2 is on file for CCOc1cncc(-c2ccc(CN3CCN(c4ccc(C(=O)NS(=O)(=O)c5ccc(NCCSc6ccccc6)c([N+](=O)[O-])c5)nn4)CC3)c(OC)c2)c1 ?
Response given: 3.6
